# experiment: Permeability in MDCK cell line
# Type: ADME, cell-based, Canis lupus familiaris
# applied_conditions: dog
test_readout: Papp (nm/s)

Observe how each entry below is paired with its result.
CCCC[C@H](NC(=O)O[C@@H]1C(=O)N(C(=O)c2nc3ccccc3s2)CC1(C)C)C(=O)C(=O)Nc1ccn[nH]1 :: 250
CCCC[C@H](NC(=O)O[C@@H]1C(=O)N(C(=O)Cc2ccccc2)CC1(C)C)C(=O)C(=O)N[C@H](C)c1ccccc1 :: 410

I: CCCC[C@H](NC(=O)O[C@@H]1C(=O)N(C(=O)Nc2c(C)noc2C)CC1(C)C)C(=O)C(=O)N[C@H](C)c1ccccc1
II: CCCC[C@H](NC(=O)O[C@@H]1C(=O)N(C(=O)c2ccno2)CC1(C)C)C(=O)C(=O)N[C@H](C)c1ccccc1
// pick min by Papp: I , II Select an item and report its label.
I
